# Procedure text: self-splicing fitness, log relative to wild type (ln ratio); higher = more splicing; Tetrahymena group I intron in knt gene, E. coli kanamycin selection, DiMSum; sequences stand for … in CUCUCU…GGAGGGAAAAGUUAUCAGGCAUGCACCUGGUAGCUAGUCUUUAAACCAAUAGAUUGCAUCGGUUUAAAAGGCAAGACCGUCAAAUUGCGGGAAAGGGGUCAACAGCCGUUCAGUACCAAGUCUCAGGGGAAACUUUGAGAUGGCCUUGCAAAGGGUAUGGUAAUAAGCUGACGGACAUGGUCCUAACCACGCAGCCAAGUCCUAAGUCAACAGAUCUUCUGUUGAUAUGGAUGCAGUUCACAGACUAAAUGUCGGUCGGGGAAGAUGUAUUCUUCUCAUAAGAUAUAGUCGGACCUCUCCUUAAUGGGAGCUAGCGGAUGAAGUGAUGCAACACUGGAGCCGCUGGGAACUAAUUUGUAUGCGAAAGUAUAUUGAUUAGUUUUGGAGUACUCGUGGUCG;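 also: selection with 25 µg/mL kanamycin versus none on LB agar overnight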
# Conditions used: 30 °C
Item-by-item account of self-splicing fitness (ln)

{"columns": ["Ordered residues", "self-splicing fitness (ln)"],
 "data": [
  ["GAUUAGCAAUAUUACGAAUA", -1.1],
  ["GGUGAGCAAUAUUACGAAAU", -2.21],
  ["ACCCAGCAAUAUUACGAUAU", -1.72],
  ["UGCUAGCAAUAUUACGUGCU", -2.31],
  ["CCCUAGCAAUAUUACGACCG", -1.21],
  ["GCUAAGCAAUAUUACGAAUU", -2.39],
  ["AACAAGCAAUAUUACGCACG", -1.31],
  ["CAUCAGCAAUAUUACGUUAU", -3.34],
  ["AUCAAGCAAUAUUACGGUCG", -2.22],
  ["AUUAAGCAAUAUUACGUCGC", -3.33],
  ["UCUCAGCAAUAUUACGUUUA", -2.98],
  ["UGACAGCAAUAUUACGCGAC", -1.82],
  ["ACGGAGCAAUAUUACGUUAA", -2.65],
  ["GACUAGCAAUAUUACGAGGA", -2.29],
  ["CCCAAGCAAUAUUACGCGCG", -3.78],
  ["CCCUAGCAAUAUUACGUCAU", -2.27],
  ["UUCCAGCAAUAUUACGCACA", -0.0937],
  ["GCAUAGCAAUAUUACGCCAG", -2.88],
  ["GUCGAGCAAUAUUACGAGCA", -1.76],
  ["UUUUAGCAAUAUUACGAGCU", -2.57],
  ["AAUUAGCAAUAUUACGUGUC", -3.59],
  ["CAGGAGCAAUAUUACGCUUU", -3.59],
  ["GCCAAGCAAUAUUACGUUCG", -3.08],
  ["UUAGAGCAAUAUUACGUGAG", -1.88],
  ["UGCGAGCAAUAUUACGGCGA", -0.753],
  ["GGACAGCAAUAUUACGCAAC", -1.68],
  ["CCACAGCAAUAUUACGUCGC", -3.63],
  ["CGUUAGCAAUAUUACGCCUC", -3.03],
  ["CGGGAGCAAUAUUACGAUAA", -3.16],
  ["GCGCAGCAAUAUUACGUGCC", -3.26],
  ["UGGGAGCAAUAUUACGCGUG", -2.51],
  ["CCAUAGCAAUAUUACGGCAU", -4.02],
  ["AUGCAGCAAUAUUACGCAUU", -3.49],
  ["CCAAAGCAAUAUUACGCGUA", -4.41]
]}
